Hello, the source for this data is patent US20080269202A1, in case you need it.

Each entry below carries its reported inhibition at 10 µM.
- ASSAYED_TARGET: Melatonin (MT2) receptor (Homo sapiens)
- Sequence (P49286 1-362): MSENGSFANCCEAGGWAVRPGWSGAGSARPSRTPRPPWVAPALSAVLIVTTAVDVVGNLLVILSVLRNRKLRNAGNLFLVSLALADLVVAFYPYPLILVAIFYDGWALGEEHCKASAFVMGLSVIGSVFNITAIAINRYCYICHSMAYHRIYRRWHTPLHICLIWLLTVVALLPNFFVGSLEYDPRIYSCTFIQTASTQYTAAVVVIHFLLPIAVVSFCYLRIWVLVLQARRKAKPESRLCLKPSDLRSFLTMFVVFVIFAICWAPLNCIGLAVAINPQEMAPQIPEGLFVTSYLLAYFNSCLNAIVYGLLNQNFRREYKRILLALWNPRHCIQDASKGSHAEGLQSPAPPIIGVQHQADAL
- ASSAY_PROTOCOL: in vitro inhibition, melatonin (MT2) receptor
- Assay type: binding
- PROTOCOL_CONDITIONS: conc: 10 μM
ATTRIBUTE_MEASURED: inhibition at 10 µM (%)

[
  {
    "MOL": "COc1cc2c(cc1OC)C(c1ccc(N)c(C)c1)=NN(c1ncon1)[C@H](C)C2",
    "ASSAYED_TARGET": "Melatonin (MT2) receptor (Homo sapiens)",
    "REPORTED_VALUE": 80
  },
  {
    "MOL": "CNC(=O)N1N=C(c2ccc(N)c(C)c2)c2cc(OC)c(OC)cc2C[C@H]1C",
    "ASSAYED_TARGET": "Melatonin (MT2) receptor (Homo sapiens)",
    "REPORTED_VALUE": 64
  },
  {
    "MOL": "CNC(=O)N1N=C(c2ccc(N)cc2)c2cc(OC)c(OC)cc2C[C@H]1C",
    "ASSAYED_TARGET": "Melatonin (MT2) receptor (Homo sapiens)",
    "REPORTED_VALUE": 80
  },
  {
    "MOL": "COc1cc2c(cc1OC)C(c1ccc(N)c(C)c1)=NN(c1nncs1)[C@H](C)C2",
    "ASSAYED_TARGET": "Melatonin (MT2) receptor (Homo sapiens)",
    "REPORTED_VALUE": 95
  }
]

---

[
  {
    "COMPOUND": "CCOc1cc2c(cc1OCC)C(c1ccc(N)cc1)=NN(c1ncon1)C(C)C2 (racemic)",
    "melting point": "158 to 162 °C"
  },
  {
    "COMPOUND": "CNC(=O)N1N=C(c2cc(C)c(N)c(C)c2)c2cc(OC)c(OC)cc2C[C@H]1C",
    "melting point": "110 to 113 °C"
  },
  {
    "COMPOUND": "COc1cc2c(cc1OC)C(c1ccc(N)c(C)c1)=NN(C1=NOCS1)[C@H](C)C2",
    "melting point": "194 to 197 °C"
  },
  {
    "COMPOUND": "COc1cc2c(cc1OC)C(c1ccc(N)cc1)=NN(c1ncon1)C(C)C2 (racemic)",
    "melting point": "227 to 229 °C"
  }
]

---

- ASSAYED_TARGET: central dopaminergic receptors (Homo sapiens)
- Sequence (P35462 whole entry): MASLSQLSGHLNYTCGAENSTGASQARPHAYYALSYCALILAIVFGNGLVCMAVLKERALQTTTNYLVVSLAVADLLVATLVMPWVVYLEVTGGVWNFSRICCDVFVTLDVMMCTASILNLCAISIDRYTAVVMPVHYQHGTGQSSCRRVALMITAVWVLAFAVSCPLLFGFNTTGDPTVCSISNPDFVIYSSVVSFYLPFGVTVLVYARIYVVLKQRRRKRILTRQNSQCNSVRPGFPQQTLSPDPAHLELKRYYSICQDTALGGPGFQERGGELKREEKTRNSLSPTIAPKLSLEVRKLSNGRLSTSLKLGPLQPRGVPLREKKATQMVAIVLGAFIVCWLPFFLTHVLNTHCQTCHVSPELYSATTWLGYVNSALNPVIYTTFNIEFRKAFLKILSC
- ASSAY_PROTOCOL: in vitro binding profile to central dopaminergic receptors (Table 3)
- PROTOCOL_CONDITIONS: human recombinant CHO cells, ligand [3H]spiperone (footnote prints D2); read-out: D3 binding
ATTRIBUTE_MEASURED: Ki

[
  {
    "MOL": "COc1cc2c(cc1OC)C(c1ccc(N)c(C)c1)=NN(c1nncs1)[C@H](C)C2",
    "REPORTED_VALUE": "> 10 µM"
  },
  {
    "MOL": "CNC(=O)N1N=C(c2ccc(N)cc2)c2cc(OC)c(OC)cc2C[C@H]1C",
    "REPORTED_VALUE": "> 10 µM"
  },
  {
    "MOL": "COc1cc2c(cc1OC)C(c1ccc(N)c(C)c1)=NN(c1ncon1)[C@H](C)C2",
    "REPORTED_VALUE": "> 10 µM"
  },
  {
    "MOL": "CNC(=O)N1N=C(c2ccc(N)c(C)c2)c2cc(OC)c(OC)cc2C[C@H]1C",
    "REPORTED_VALUE": "> 10 µM"
  }
]

---

[
  {
    "COMPOUND": "COc1cc2c(cc1OC)C(c1ccc(N)cc1)=NN(c1nccs1)C(C)C2 (racemic)",
    "melting point": "119 to 122 °C"
  },
  {
    "COMPOUND": "COc1cc2c(cc1OC)C(c1ccc([N+](=O)[O-])c(Cl)c1)=NN(c1ncon1)C(C)C2 (stereo not drawn) [Example 45]",
    "melting point": "227 to 230 °C"
  },
  {
    "COMPOUND": "COc1cc2c(cc1OC)C(c1ccc([N+](=O)[O-])cc1)=NN(c1nnc(C)s1)C(C)C2 (stereo not drawn)",
    "melting point": "228 to 229 °C"
  },
  {
    "COMPOUND": "COc1cc2c(cc1OC)C(c1ccc(NC(C)=O)cc1)=NN(c1nccs1)C(C)C2 (stereo not drawn)",
    "melting point": "130 to 134 °C"
  },
  {
    "COMPOUND": "CNC(=O)N1N=C(c2ccc(Cl)cc2)c2cc(OC)c(OC)cc2CC1C (stereo not drawn)",
    "melting point": "164 to 166 °C"
  },
  {
    "COMPOUND": "CNC(=O)N1N=C(c2ccc(F)cc2)c2cc(OC)c(OC)cc2CC1C (stereo not drawn)",
    "melting point": "80 to 83 °C"
  },
  {
    "COMPOUND": "COc1cc2c(cc1OC)C(c1ccc(N)c(C)c1)=NN(C(=O)NC1CC1)[C@H](C)C2",
    "melting point": "112 to 114 °C"
  },
  {
    "COMPOUND": "COc1cc2c(cc1OC)C(c1ccc(N)c(C)c1)=NN(c1nncs1)[C@H](C)C2",
    "melting point": "143 °C"
  },
  {
    "COMPOUND": "COc1cc2c(cc1OC)C(c1ccc(NC(C)=O)cc1)=NN(c1nncs1)C(C)C2 (stereo not drawn)",
    "melting point": "150 to 151 °C"
  },
  {
    "COMPOUND": "CNC(=O)N1N=C(c2ccc(N)c(C)c2)c2cc(OC)c(OC)cc2C[C@H]1C",
    "melting point": "147 °C"
  },
  {
    "COMPOUND": "COc1cc2c(cc1OC)C(c1ccc([N+](=O)[O-])cc1)=NN(c1nc(C)cs1)C(C)C2 (stereo not drawn)",
    "melting point": "194 to 195 °C"
  },
  {
    "COMPOUND": "COc1cc2c(cc1OC)C(c1ccc(N)c(C)c1)=NN(C(=O)NC(C)C)[C@H](C)C2",
    "melting point": "115 to 117 °C"
  },
  {
    "COMPOUND": "CNC(=O)N1N=C(c2ccc(N)cc2)c2cc(OC)c(OC)cc2C[C@H]1C",
    "melting point": "140 to 144 °C"
  },
  {
    "COMPOUND": "CCNC(=O)N1N=C(c2ccc([N+](=O)[O-])cc2)c2cc(OC)c(OC)cc2CC1C (stereo not drawn) [78]",
    "melting point": "206 to 208 °C"
  },
  {
    "COMPOUND": "COc1cc2c(cc1OC)C(c1ccc(N)cc1)=NN(C1=NNC(=O)CS1)C(C)C2 (racemic)",
    "melting point": "159 to 163 °C"
  },
  {
    "COMPOUND": "COc1cc2c(cc1OC)C(c1ccc(N)cc1)=NN(c1nccs1)[C@H](C)C2",
    "melting point": "229 to 230 °C"
  },
  {
    "COMPOUND": "COc1cc2c(cc1OC)C(c1ccc(N)cc1)=NN(C1=NCCS1)C(C)C2 (racemic)",
    "melting point": "121 to 123 °C"
  },
  {
    "COMPOUND": "CCNC(=O)N1N=C(c2ccc([N+](=O)[O-])c(C)c2)c2cc(OC)c(OC)cc2CC1C (stereo not drawn)",
    "melting point": "149 to 150 °C"
  }
]
